Test system: 361931-004-R-J1-PDC multicell spheroid viability
Experiment Notes: Anticancer human tumor 361931-004-R-J1-PDC patient-derived colon adenocarcinoma cell line growth inhibition [PI3K]
Condition Summary: compound 0.316 µM; stronger effect = lower value
Let's look at some compounds and their measured viability, T/C.

The cases that follow already have their viability, T/C on record.
compound="CC(Cn1ccc(-c2ccc(C#N)c(Cl)c2)n1)NC(=O)c1cc(C(C)O)[nH]n1 (stereo not drawn)" result="105% [middle of 4 runs]"
compound=CC1(C)CCC(CN2CCN(c3ccc(C(=O)NS(=O)(=O)c4ccc(NCC5CCOCC5)c([N+](=O)[O-])c4)c(Oc4cnc5[nH]ccc5c4)c3)CC2)=C(c2ccc(Cl)cc2)C1 result="101% [middle of 4 runs]"

Input line: Report viability, T/C for `COc1c(OCCCN2CCOCC2)ccc2c3n(c(=NC(=O)c4cnc(N)nc4)nc12)CCN3` please.
Output line: 55.9% [middle of 8 runs]

---

Let's look at some compounds and their measured IC50.
Test system: 361931-004-R-J1-PDC multicell spheroid viability
Experiment Notes: Anticancer human tumor 361931-004-R-J1-PDC cell line growth inhibition [PI3K];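 also: spheroids exposed to agents for seven days before readout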
Condition Summary: curve of first compound; second compound 0.0316 µM
Give the quantity in µM, number only.

compound="Cn1nccc1Nc1nccc(-c2ccn(C(CO)c3ccc(Cl)c(F)c3)c(=O)c2)n1 (stereo not given) + Cc1nc(NC(=O)N2CCCC2C(N)=O)sc1-c1ccnc(C(C)(C)C(F)(F)F)c1" measurement_unit=µM measured_number=9.92
compound="CCCS(=O)(=O)Nc1ccc(F)c(C(=O)c2c[nH]c3ncc(-c4ccc(Cl)cc4)cc23)c1F + CC(Nc1ccc2c(c1)OCCn1cc(N3C(=O)OCC3C(F)F)nc1-2)C(N)=O" measurement_unit=µM measured_number=5.27
compound="Cn1nccc1Nc1nccc(-c2ccn(C(CO)c3ccc(Cl)c(F)c3)c(=O)c2)n1 (stereo not given) + CC(Nc1ccc2c(c1)OCCn1cc(N3C(=O)OCC3C(F)F)nc1-2)C(N)=O" measurement_unit=µM measured_number=6.08
compound="CC1(C)CCC(Nc2ncc(C(F)(F)F)c(-c3c[nH]c4c(P(C)(C)=O)c(C#N)ccc34)n2)CN1 (stereo not given) + COc1c(OCCCN2CCOCC2)ccc2c3n(c(=NC(=O)c4cnc(N)nc4)nc12)CCN3" measurement_unit=µM measured_number=4.49

Input line: Report IC50 for CC1(C)CCC(CN2CCN(c3ccc(C(=O)NS(=O)(=O)c4ccc(NCC5CCOCC5)c([N+](=O)[O-])c4)c(Oc4cnc5[nH]ccc5c4)c3)CC2)=C(c2ccc(Cl)cc2)C1 + CC(Nc1ncnc2nc[nH]c12)c1cc2cccc(Cl)c2c(=O)n1-c1ccccc1 please.
Output line: 5.36

---

Let's look at some compounds and their measured viability, T/C.
System: 361931-004-R-J1-PDC multicell spheroid viability
Experiment Notes: Anticancer human tumor 361931-004-R-J1-PDC cell line growth inhibition [PI3K];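 also: spheroids exposed to agents for seven days before readout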
Condition Summary: second compound 0.0316 µM; first compound 0.0316 µM; stronger effect = lower value
Give the quantity in %, number only.

The cases that follow already have their viability, T/C on record.
compound="CCCS(=O)(=O)Nc1ccc(F)c(C(=O)c2c[nH]c3ncc(-c4ccc(Cl)cc4)cc23)c1F + COc1c(OCCCN2CCOCC2)ccc2c3n(c(=NC(=O)c4cnc(N)nc4)nc12)CCN3" endpoint_name="viability, T/C" measured_number=93
compound="CNC(=O)c1ccc(N2C(=S)N(c3ccc(C#N)c(C(F)(F)F)c3)C(=O)C2(C)C)cc1F + Cc1nc(NC(=O)N2CCCC2C(N)=O)sc1-c1ccnc(C(C)(C)C(F)(F)F)c1" endpoint_name="viability, T/C" measured_number=113

Note: attention shifts to another entry.
Input line: Report viability, T/C for CC(C)NCC(C(=O)N1CCN(c2ncnc3c2C(C)CC3O)CC1)c1ccc(Cl)cc1 (stereo not drawn) + COc1c(OCCCN2CCOCC2)ccc2c3n(c(=NC(=O)c4cnc(N)nc4)nc12)CCN3 please.
Output line: 95

---

Tested on: 361931-004-R-J1-PDC multicell spheroid viability
Experiment Notes: Anticancer human tumor 361931-004-R-J1-PDC cell line growth inhibition [PI3K];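 also: spheroids exposed to agents for seven days before readout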
Condition Summary: second compound 0.0316 µM; first compound 0.0316 µM; stronger effect = lower value
Let's look at some compounds and their measured viability, T/C.

compound="CC(Cn1ccc(-c2ccc(C#N)c(Cl)c2)n1)NC(=O)c1cc(C(C)O)[nH]n1 (stereo not given) + CC(Nc1ncnc2nc[nH]c12)c1cc2cccc(Cl)c2c(=O)n1-c1ccccc1" study_target="361931-004-R-J1-PDC multicell spheroid viability" endpoint_name="viability, T/C" result=102%
compound="Cn1ncnc1[C@H]1c2n[nH]c(=O)c3cc(F)cc(c23)N[C@@H]1c1ccc(F)cc1 + CC(Nc1ccc2c(c1)OCCn1cc(N3C(=O)OCC3C(F)F)nc1-2)C(N)=O" study_target="361931-004-R-J1-PDC multicell spheroid viability" endpoint_name="viability, T/C" result=98%
compound="CC(Cn1ccc(-c2ccc(C#N)c(Cl)c2)n1)NC(=O)c1cc(C(C)O)[nH]n1 (stereo not given) + Cc1nc(NC(=O)N2CCCC2C(N)=O)sc1-c1ccnc(C(C)(C)C(F)(F)F)c1" study_target="361931-004-R-J1-PDC multicell spheroid viability" endpoint_name="viability, T/C" result=102%
compound="CC1(C)CCC(CN2CCN(c3ccc(C(=O)NS(=O)(=O)c4ccc(NCC5CCOCC5)c([N+](=O)[O-])c4)c(Oc4cnc5[nH]ccc5c4)c3)CC2)=C(c2ccc(Cl)cc2)C1 + CC(Nc1ccc2c(c1)OCCn1cc(N3C(=O)OCC3C(F)F)nc1-2)C(N)=O" study_target="361931-004-R-J1-PDC multicell spheroid viability" endpoint_name="viability, T/C" result=99.1%
compound="Cn1nccc1Nc1nccc(-c2ccn(C(CO)c3ccc(Cl)c(F)c3)c(=O)c2)n1 (stereo not given) + CC(Nc1ncnc2nc[nH]c12)c1cc2cccc(Cl)c2c(=O)n1-c1ccccc1" study_target="361931-004-R-J1-PDC multicell spheroid viability" endpoint_name="viability, T/C" result=101%
compound="CCCS(=O)(=O)Nc1ccc(F)c(C(=O)c2c[nH]c3ncc(-c4ccc(Cl)cc4)cc23)c1F + Cc1nc(NC(=O)N2CCCC2C(N)=O)sc1-c1ccnc(C(C)(C)C(F)(F)F)c1" study_target="361931-004-R-J1-PDC multicell spheroid viability" endpoint_name="viability, T/C" result=96.2%
compound="CC1(C)CCC(CN2CCN(c3ccc(C(=O)NS(=O)(=O)c4ccc(NCC5CCOCC5)c([N+](=O)[O-])c4)c(Oc4cnc5[nH]ccc5c4)c3)CC2)=C(c2ccc(Cl)cc2)C1 + COc1c(OCCCN2CCOCC2)ccc2c3n(c(=NC(=O)c4cnc(N)nc4)nc12)CCN3" study_target="361931-004-R-J1-PDC multicell spheroid viability" endpoint_name="viability, T/C" result=96%
compound="C=CC(=O)N1CCN(c2nc(=O)n(-c3c(C)ccnc3C(C)C)c3nc(-c4c(O)cccc4F)c(F)cc23)C(C)C1 (stereo not given) + COc1c(OCCCN2CCOCC2)ccc2c3n(c(=NC(=O)c4cnc(N)nc4)nc12)CCN3" study_target="361931-004-R-J1-PDC multicell spheroid viability" endpoint_name="viability, T/C" result=94.6%
compound="CC(C)NCC(C(=O)N1CCN(c2ncnc3c2C(C)CC3O)CC1)c1ccc(Cl)cc1 (stereo not given) + CC(Nc1ncnc2nc[nH]c12)c1cc2cccc(Cl)c2c(=O)n1-c1ccccc1" study_target="361931-004-R-J1-PDC multicell spheroid viability" endpoint_name="viability, T/C" result=99.7%

Note: attention shifts to another entry.
Input line: Report viability, T/C for CC1(C)CCC(Nc2ncc(C(F)(F)F)c(-c3c[nH]c4c(P(C)(C)=O)c(C#N)ccc34)n2)CN1 (stereo not given) + COc1c(OCCCN2CCOCC2)ccc2c3n(c(=NC(=O)c4cnc(N)nc4)nc12)CCN3 please.
Output line: 80.7%

---

Test system: 361931-004-R-J1-PDC multicell spheroid viability
Experiment Notes: Anticancer human tumor 361931-004-R-J1-PDC cell line growth inhibition [PI3K];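 also: spheroids exposed to agents for seven days before readout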
Condition Summary: second compound 0.316 µM; first compound 0.1 µM; stronger effect = lower value
Sorting guide: entries reporting viability, T/C beneath 90% go in the 1 pile, the rest go in the -1 pile.

Solved cases (10 shown):
compound="CC(=O)c1c(C)c2cnc(Nc3ccc(N4CCNCC4)cn3)nc2n(C2CCCC2)c1=O + CC(Nc1ccc2c(c1)OCCn1cc(N3C(=O)OCC3C(F)F)nc1-2)C(N)=O" study_target="361931-004-R-J1-PDC multicell spheroid viability" discrete_label=1
compound="CC(C)n1nc(-c2ccc3oc(N)nc3c2)c2c(N)ncnc21 + CC(Nc1ncnc2nc[nH]c12)c1cc2cccc(Cl)c2c(=O)n1-c1ccccc1" study_target="361931-004-R-J1-PDC multicell spheroid viability" discrete_label=1
compound="CC(=O)c1c(C)c2cnc(Nc3ccc(N4CCNCC4)cn3)nc2n(C2CCCC2)c1=O + Cc1nc(NC(=O)N2CCCC2C(N)=O)sc1-c1ccnc(C(C)(C)C(F)(F)F)c1" study_target="361931-004-R-J1-PDC multicell spheroid viability" discrete_label=1
compound="C=CC(=O)N1CCN(c2nc(=O)n(-c3c(C)ccnc3C(C)C)c3nc(-c4c(O)cccc4F)c(F)cc23)C(C)C1 (stereo unspecified) + CC(Nc1ccc2c(c1)OCCn1cc(N3C(=O)OCC3C(F)F)nc1-2)C(N)=O" study_target="361931-004-R-J1-PDC multicell spheroid viability" discrete_label=1
compound="C[C@@H](NC(=O)c1ncnc(N)c1Cl)c1ncc(C(=O)Nc2cc(C(F)(F)F)c(Cl)cn2)s1 + COc1c(OCCCN2CCOCC2)ccc2c3n(c(=NC(=O)c4cnc(N)nc4)nc12)CCN3" study_target="361931-004-R-J1-PDC multicell spheroid viability" discrete_label=1
compound="Cn1ncnc1[C@H]1c2n[nH]c(=O)c3cc(F)cc(c23)N[C@@H]1c1ccc(F)cc1 + COc1c(OCCCN2CCOCC2)ccc2c3n(c(=NC(=O)c4cnc(N)nc4)nc12)CCN3" study_target="361931-004-R-J1-PDC multicell spheroid viability" discrete_label=1
compound="Cn1ncc(Cl)c1-c1cc(C(=O)NC(CN)Cc2cccc(F)c2)sc1Cl (stereo unspecified) + CC(Nc1ccc2c(c1)OCCn1cc(N3C(=O)OCC3C(F)F)nc1-2)C(N)=O" study_target="361931-004-R-J1-PDC multicell spheroid viability" discrete_label=1
compound="CC(C)NCC(C(=O)N1CCN(c2ncnc3c2C(C)CC3O)CC1)c1ccc(Cl)cc1 (stereo unspecified) + COc1c(OCCCN2CCOCC2)ccc2c3n(c(=NC(=O)c4cnc(N)nc4)nc12)CCN3" study_target="361931-004-R-J1-PDC multicell spheroid viability" discrete_label=1
compound="CC1(C)CCC(Nc2ncc(C(F)(F)F)c(-c3c[nH]c4c(P(C)(C)=O)c(C#N)ccc34)n2)CN1 (stereo unspecified) + COc1c(OCCCN2CCOCC2)ccc2c3n(c(=NC(=O)c4cnc(N)nc4)nc12)CCN3" study_target="361931-004-R-J1-PDC multicell spheroid viability" discrete_label=1
compound="Cn1nccc1Nc1nccc(-c2ccn(C(CO)c3ccc(Cl)c(F)c3)c(=O)c2)n1 (stereo unspecified) + CC(Nc1ncnc2nc[nH]c12)c1cc2cccc(Cl)c2c(=O)n1-c1ccccc1" study_target="361931-004-R-J1-PDC multicell spheroid viability" discrete_label=-1

Input line: Confirm or reject: viability, T/C of CC1(C)CCC(CN2CCN(c3ccc(C(=O)NS(=O)(=O)c4ccc(NCC5CCOCC5)c([N+](=O)[O-])c4)c(Oc4cnc5[nH]ccc5c4)c3)CC2)=C(c2ccc(Cl)cc2)C1 + CC(Nc1ncnc2nc[nH]c12)c1cc2cccc(Cl)c2c(=O)n1-c1ccccc1 lies strictly below 90%
Output line: -1

Input line: Also C[C@@H](NC(=O)c1ncnc(N)c1Cl)c1ncc(C(=O)Nc2cc(C(F)(F)F)c(Cl)cn2)s1 + Cc1nc(NC(=O)N2CCCC2C(N)=O)sc1-c1ccnc(C(C)(C)C(F)(F)F)c1 ?
Output line: -1

Input line: Also C[C@@H](NC(=O)c1ncnc(N)c1Cl)c1ncc(C(=O)Nc2cc(C(F)(F)F)c(Cl)cn2)s1 + CC(Nc1ccc2c(c1)OCCn1cc(N3C(=O)OCC3C(F)F)nc1-2)C(N)=O ?
Output line: 1

Input line: Also CC(C)n1nc(-c2ccc3oc(N)nc3c2)c2c(N)ncnc21 + COc1c(OCCCN2CCOCC2)ccc2c3n(c(=NC(=O)c4cnc(N)nc4)nc12)CCN3 ?
Output line: 1

Input line: Also CC(C)NCC(C(=O)N1CCN(c2ncnc3c2C(C)CC3O)CC1)c1ccc(Cl)cc1 (stereo unspecified) + CC(Nc1ncnc2nc[nH]c12)c1cc2cccc(Cl)c2c(=O)n1-c1ccccc1 ?
Output line: -1

Input line: Also CCN1CCN(Cc2ccc(Nc3ncc(F)c(-c4cc(F)c5nc(C)n(C(C)C)c5c4)n3)nc2)CC1 + Cc1nc(NC(=O)N2CCCC2C(N)=O)sc1-c1ccnc(C(C)(C)C(F)(F)F)c1 ?
Output line: 1

Input line: Also C=CC(=O)N1CCN(c2nc(=O)n(-c3c(C)ccnc3C(C)C)c3nc(-c4c(O)cccc4F)c(F)cc23)C(C)C1 (stereo unspecified) + COc1c(OCCCN2CCOCC2)ccc2c3n(c(=NC(=O)c4cnc(N)nc4)nc12)CCN3 ?
Output line: 1
